- experimentalSystem: T1, human LAG3 of the LAG3 and MHC II binding assay kit (Cisbio, 64ICP03PEG) (human, UniProt P18627 23-450, limits assumed)
- T1 construct: Bought kit reagent
- T1 sequence (looked up): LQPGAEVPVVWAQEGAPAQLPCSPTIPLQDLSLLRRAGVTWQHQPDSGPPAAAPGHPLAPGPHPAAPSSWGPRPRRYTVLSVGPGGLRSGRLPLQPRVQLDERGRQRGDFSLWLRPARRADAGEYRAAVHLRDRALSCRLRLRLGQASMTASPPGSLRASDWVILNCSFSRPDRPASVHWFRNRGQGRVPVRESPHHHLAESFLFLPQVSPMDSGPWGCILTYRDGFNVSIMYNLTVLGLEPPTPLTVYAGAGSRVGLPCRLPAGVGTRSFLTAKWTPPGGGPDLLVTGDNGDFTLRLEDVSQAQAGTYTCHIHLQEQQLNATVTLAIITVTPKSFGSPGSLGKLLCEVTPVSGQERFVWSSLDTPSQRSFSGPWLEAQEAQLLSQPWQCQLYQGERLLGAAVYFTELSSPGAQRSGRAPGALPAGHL
- assayComment: TR-FRET LAG3/MHC II binding assay (Cisbio); blocks MHC II
- Description: To measure the ability of anti-LAG3 monoclonal antibodies to block the interaction between human LAG3 and MHCII, the LAG3 and MHC II binding assay (Cisbio, 64ICP03PEG) were performed utilizing homogeneous TR-FRET technology, following the protocol provided by the kit manufacturer. […] Fluorescence data was acquired on a PerkinElmer Envision plate reader and a four-parameter dose-response curve was fitted to obtain IC50 of each antibody.
Some binders, each annotated with its measured IC50.
Please reply with the bare figure in pM and do not write the unit itself.

binder	readoutUnit	IC50
147H 3811 (antibody, V domains shown) VH: EVQLVQSGAEVKKPGASVKVSCKASGYLFTNYWLGWIKQAPGQGLEWIGDIYPGGDYIVYNEKFKGKATLTADTSISTAYMELSRLRSDDTAVYYCARPNLPKDHWGQGTTVTVSS VL: DIVMTQSPLSLPVTPGEPASISCRSSKSLLHSNAITYLYWYLQKPGQSPQLLIYQVSNLATGVPDRFSGSGSGTDFTLKISRVEAEDVGVYYCGQYLELPWTFGGGTKVEIK	pM	590
147H 3809 (antibody, V domains shown) VH: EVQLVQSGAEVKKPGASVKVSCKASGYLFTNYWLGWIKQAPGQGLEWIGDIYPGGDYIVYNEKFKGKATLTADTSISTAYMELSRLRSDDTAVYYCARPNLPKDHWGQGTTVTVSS VL: DIVMTQSPLSLPVTPGEPASISCRSSKSLLHSNAITYLYWYLQKPGQSPQLLIYQVSNLASGVPDRFSGSGSGTDFTLKISRVEAEDVGVYYCAQYLELPWTFGGGTKVEIK	pM	960

Item under review: 147H 3807 (antibody, V domains shown, also called B3807) VH: EVQLVQSGAEVKKPGASVKVSCKASGYTFTNYWLGWIKQAPGQGLEWIGDIYPGGDYIVYNEKFKGKATLTADTSISTAYMELSRLRSDDTAVYYCARPNLPKDHWGQGTTVTVSS VL: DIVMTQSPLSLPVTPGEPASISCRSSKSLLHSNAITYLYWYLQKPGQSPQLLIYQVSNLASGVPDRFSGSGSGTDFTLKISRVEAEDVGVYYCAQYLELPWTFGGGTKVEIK . Reported IC50? 310

Cited source: patent US20190225687A1
